Record form. Attribute: CC50 at 48 h. Fill in for each entry.
Experiment: Cytotoxicity in Huh7 cells, nuclei counts
Conditions: human, WNV CC50, Huh7 cells, WNV experiment
Answers are plain numbers, in µM.

Report CC50 at 48 h for each item below.
1. Cc1ccccc1NC(=O)Nc1ccc(-n2cc(CCC(C)C)nn2)cc1 [Compound 20b]
2. O=[N+]([O-])c1cccc(S(=O)(=O)Nc2ccccc2O)c1 [Compound 58a]
3. CCCCc1cn(-c2ccc(NC(=O)Nc3ccccc3C(F)(F)F)cc2)nn1 [Compound 22a]

62.3
60.9
145

###

For each of the compounds below, state its CC50 at 48 h.
Assay: Cytotoxicity in PBMC, CellTiter 96 MTS viability assay
Format: cell-based
Conditions: human, human primary PBMCs; 48 h
Numbers only, in µM.

compound="CCCCc1cn(-c2cccc(S(=O)(=O)Nc3ccccc3C(F)(F)F)c2)nn1 [Compound 64d]" value=332

API: the following record is the query input.
What does the data say about its CC50 at 48 h? Entry: CCOCc1cn(-c2cccc(S(=O)(=O)Nc3ccccc3C(F)(F)F)c2)nn1 [Compound 66d]
357

###

Test system: HIV-1 wild-type reference strain NL4-3
Experiment: HIV-1 phenotypic assay, MT-2 cells then TZM-bl cells, luciferase
Assay type: cell-based
Settings: Human immunodeficiency virus 1, NL43; first cycle in MT-2 cells, additional round in TZM-bl cells
pEC50: −log10 of the molar value.
Entry flag: yes (1) if pEC50 reaches 5; no (0) if it does not.

Examples from the recorded data:
compound="O=[N+]([O-])c1cccc(S(=O)(=O)Nc2ccccc2O)c1 [Compound 58a]" category="no (0)"
compound="CC(C)CCc1cn(-c2ccc(NC(=O)Nc3cccc(F)c3)cc2)nn1 [Compound 55b]" category="yes (1)"
compound="CCCCn1nnc(-c2ccc(NC(=O)Nc3ccccc3C)cc2)n1 [Compound 49]" category="yes (1)"

With those in mind, consider the next compound.
Please indicate if the recorded pEC50 for CCCCc1cc(-c2ccc(NC(=O)Nc3ccccc3C(F)(F)F)cc2)no1 [Compound 102] meets or exceeds 5.
no (0)

###

Please provide measured CC50 for the entries that follow.
Assay: Cytotoxicity, MTT method in LUNET cells
Type: cell-based
Settings: human; MMT method in LUNET cells; read-out: CC50 (μM) non-infected cells
Give bare numbers, in µM.

smiles=CCCCn1nnc(-c2ccc(NC(=O)Nc3ccccc3C)cc2)n1 unit_name=µM value=11.2

Kindly consider the entry below.
Request the reported CC50 associated with Cc1ccccc1NC(=O)Nc1ccc(-n2cc(C(C)(C)C)nn2)cc1
100

###

Test system: HIV-1 wild-type reference strain NL4-3
Test: HIV-1 phenotypic assay, MT-2 cells then TZM-bl cells, luciferase
Format: cell-based
Conditions: Human immunodeficiency virus 1, NL43; first cycle in MT-2 cells, additional round in TZM-bl cells
parameter_measured: EC50
Form field: result (number plus unit)

Worked examples, 3 compounds total:
compound="CCCCn1nnc(-c2ccc(NC(=O)Nc3ccccc3C(F)(F)F)cc2)n1 [Compound 51]" value="5.5 µM"
compound="CCCCc1nc(-c2cccc(S(=O)(=O)Nc3ccccc3C(F)(F)F)c2)no1 [Compound 134]" value="3.1 µM"
compound="CCCCc1nnc(-c2ccc(NC(=O)Nc3ccccc3C(F)(F)F)cc2)o1 [Compound 112]" value="5.5 µM"

Dear colleague, could you send me EC50 for each of the items below? Thanks.
1. COc1cc(NC(=O)Nc2ccccc2C(F)(F)F)ccc1-n1cc(CCC(C)C)nn1 [Compound 80]
2. CC(C)CCc1cn(-c2ccc(NC(=O)Nc3ccccc3C(F)(F)F)cn2)nn1 [Compound 86]
3. CCOCc1cn(-c2ccc(NC(=O)Nc3cccc(F)c3)cc2)nn1 [Compound 55o]
4. CCCCc1cn(-c2ccc(NC(=O)Nc3cc(OC4CCCC4)ccc3C)cc2)nn1 [Compound 55h]
5. CCCCc1nc(-c2ccc(NC(=O)Nc3ccccc3C(F)(F)F)cc2)no1 [Compound 106]
6. CCCCc1cn(-c2ccc(NC(=O)Nc3ccccc3C)cc2)nn1 [Compound 20a]

1: 7.35 µM; 2: 3 µM; 3: 21.2 µM; 4: 16.2 µM; 5: 2.2 µM; 6: 1.1 µM

###

System: HIV-1 strains carrying resistance mutations
Assay: microbe, parasite or virus in culture
Format: cell-based
Conditions: Human immunodeficiency virus 1, TZM-bl, read-out: IC50 [95% CI] (μM), HIV-1 strain 12227
parameter_measured: IC50 (µM)
Answers are plain numbers, in µM.

# get_value(readout='IC50', item= CCCCc1cn(-c2ccc(NC(=O)Nc3ccccc3C)cc2)nn1 [Compound 20a] )
0.94

###

Target: ATPase DDX3 (Homo sapiens)
pIC50: −log10 of the molar value.
parameter_measured: pIC50

I am curious: what pIC50 value has been reported for CCCCc1cn(-c2ccc(NC(=O)Nc3ccccc3C)cc2)nn1 [Compound 20a] ?
< 3.70

###

Biological target: DDX1 (Homo sapiens, UniProt Q92499)
Sequence (Q92499 whole entry, species assumed): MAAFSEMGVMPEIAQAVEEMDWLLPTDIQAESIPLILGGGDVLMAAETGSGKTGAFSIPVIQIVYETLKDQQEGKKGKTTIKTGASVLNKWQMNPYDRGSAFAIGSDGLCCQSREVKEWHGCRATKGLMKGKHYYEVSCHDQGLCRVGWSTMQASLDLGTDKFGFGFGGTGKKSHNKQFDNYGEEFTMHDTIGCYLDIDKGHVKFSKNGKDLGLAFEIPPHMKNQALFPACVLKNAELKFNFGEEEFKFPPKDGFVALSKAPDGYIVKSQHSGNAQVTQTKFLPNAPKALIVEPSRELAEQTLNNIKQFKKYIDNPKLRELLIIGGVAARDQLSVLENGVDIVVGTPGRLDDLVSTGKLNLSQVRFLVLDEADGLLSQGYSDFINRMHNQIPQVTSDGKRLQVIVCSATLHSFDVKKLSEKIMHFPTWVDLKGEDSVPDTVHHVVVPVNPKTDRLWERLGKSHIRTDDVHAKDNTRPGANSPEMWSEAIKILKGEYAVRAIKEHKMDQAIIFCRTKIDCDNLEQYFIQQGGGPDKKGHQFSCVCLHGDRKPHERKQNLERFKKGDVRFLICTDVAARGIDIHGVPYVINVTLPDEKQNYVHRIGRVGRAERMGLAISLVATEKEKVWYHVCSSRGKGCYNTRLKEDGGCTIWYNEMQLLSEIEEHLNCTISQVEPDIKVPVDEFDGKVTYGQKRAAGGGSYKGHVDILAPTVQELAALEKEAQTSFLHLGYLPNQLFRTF
parameter_measured: IC50

Requested read-out: IC50. Entry: CCCCc1cn(-c2ccc(NC(=O)Nc3ccccc3C)cc2)nn1 [Compound 20a]
> 200 µM

###

Can you tell me log10(IC50) for the items I'm about to list?
Target: DDX3 Helicase (Homo sapiens, UniProt O00571)
Sequence (O00571 whole entry): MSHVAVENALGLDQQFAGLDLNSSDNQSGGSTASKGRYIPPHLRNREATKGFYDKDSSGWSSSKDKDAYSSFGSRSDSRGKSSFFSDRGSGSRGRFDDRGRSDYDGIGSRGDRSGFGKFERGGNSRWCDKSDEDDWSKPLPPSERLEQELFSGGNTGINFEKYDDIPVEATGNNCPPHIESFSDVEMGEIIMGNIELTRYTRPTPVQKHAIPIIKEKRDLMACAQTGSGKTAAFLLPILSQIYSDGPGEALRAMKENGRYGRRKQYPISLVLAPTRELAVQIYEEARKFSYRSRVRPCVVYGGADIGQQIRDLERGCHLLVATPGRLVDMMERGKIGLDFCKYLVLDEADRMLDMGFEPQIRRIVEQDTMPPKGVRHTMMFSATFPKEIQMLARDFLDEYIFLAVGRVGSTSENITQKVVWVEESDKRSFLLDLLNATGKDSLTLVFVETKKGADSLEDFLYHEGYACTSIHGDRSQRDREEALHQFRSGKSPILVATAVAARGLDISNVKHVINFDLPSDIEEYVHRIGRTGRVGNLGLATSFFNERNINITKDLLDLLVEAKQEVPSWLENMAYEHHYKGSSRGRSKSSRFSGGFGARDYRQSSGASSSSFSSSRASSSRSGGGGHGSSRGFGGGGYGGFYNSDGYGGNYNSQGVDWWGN
Test: biochemical
// units: nM (pre-log); metric: IC50; scale: log10

compound="O=[N+]([O-])c1cccc(S(=O)(=O)Nc2ccccc2O)c1 [Compound 58a]" parameter_measured=log10(IC50) value=2.57
compound=COc1cc(NC(=O)Nc2ccccc2C(F)(F)F)ccc1-n1cc(CCC(C)C)nn1 parameter_measured=log10(IC50) value=2.60

For every item in the list below, what is its measured log10(IC50)?
1. CCCCc1cn(-c2ccc(NC(=O)Nc3ccccc3C(F)(F)F)cc2)nn1 [Compound 22a]
2. CCCCc1cn(-c2ccc(NC(=O)Nc3cnccc3C)cc2)nn1 [Compound 15a]

1. 2.48
2. 3.17

###

Test system: HIV-1 strains carrying resistance mutations
Assay: microbe, parasite or virus in culture
Type: cell-based
Conditions: Human immunodeficiency virus 1, TZM-bl, read-out: IC50 [95% CI] (μM), HIV-1 strain 12235
parameter_measured: IC50 (µM)
Answers are plain numbers, in µM.

Find the measured IC50: item CCCCc1cn(-c2ccc(NC(=O)Nc3ccccc3C)cc2)nn1 [Compound 20a] , target or system HIV-1 strains carrying resistance mutations.
0.36

###

For each of the compounds below, state its CC50.
Assay: Cytotoxicity in the JEV cell culture system
Details: hamster

Consider the reported CC50 for these compounds:
compound="Cc1ccccc1NC(=O)Nc1cccc([N+](=O)[O-])c1 [EI01D, reference compound]" parameter_measured=CC50 value="> 50 µM"
compound="CC(C)CCc1cn(-c2ccc(NC(=O)Nc3cccc4cnccc34)cc2)nn1 [Compound 55f]" parameter_measured=CC50 value="> 50 µM"
compound="CCCCc1cn(-c2cccc(S(=O)(=O)Nc3ccccc3C(F)(F)F)c2)nn1 [Compound 64d]" parameter_measured=CC50 value="> 50 µM"
compound="CCOCc1cn(-c2cccc(S(=O)(=O)Nc3ccccc3C(F)(F)F)c2)nn1 [Compound 66d]" parameter_measured=CC50 value="> 50 µM"
compound="CCOCc1cn(-c2ccc(NC(=O)Nc3cc(C(C)C)ccc3C)cc2)nn1 [Compound 55e]" parameter_measured=CC50 value="> 50 µM"

For each of the items listed, what is its CC50?
1. CCOCc1cn(-c2ccc(NC(=O)Nc3ccccc3C)cc2)nn1 [Compound 20e]
2. CCCCn1nnc(-c2ccc(NC(=O)Nc3ccccc3C)cc2)n1
3. CCCCc1cn(-c2ccc(NC(=O)Nc3ccccc3C)cc2)nn1 [Compound 20a]
4. O=[N+]([O-])c1cccc(S(=O)(=O)Nc2ccccc2O)c1 [Compound 58a]

["> 50 µM", "> 50 µM", "> 50 µM", "> 50 µM"]

###

Target: UniProt:O00571
Experiment: biochemical
pIC50: −log10 of the molar value.
Lab note: compare pIC50 against 5. Equal or greater, write 1. Smaller, write -1.

compound=CCCCn1nnc(-c2ccc(NC(=O)Nc3ccccc3C)cc2)n1 category=1
compound="CCCC(C)C(F)c1cn(-c2ccc(NC(=O)Nc3ccccc3C(F)(F)F)cc2)nn1 (centres unmarked) [Compound 42c]" category=1
compound="Cc1ccccc1NC(=O)Nc1ccc(-n2cc(CO)nn2)cc1 [Compound 35a]" category=-1
compound="CCCCc1cn(-c2cccc(S(=O)(=O)Nc3ccc(OC)cc3)c2)nn1 [Compound 64b]" category=-1

Read the next record carefully.
Item CCCCc1cn(-c2ccc(S(=O)(=O)Nc3ccccc3O)cc2)nn1 [Compound 65a] with pIC50 of 5 or above?
-1

###

Target: UniProtKB O00571
Test: biochemical
parameter_measured: IC50 (nM)
Answers are plain numbers, in nM.

compound=CCCCc1nnc(-c2ccc(NC(=O)Nc3ccccc3C(F)(F)F)cc2)o1 parameter_measured=IC50 unit_name=nM value=1000
compound=CC(C)CCc1cn(-c2ccc(NC(=O)Nc3ccccc3C(F)(F)F)cn2)nn1 parameter_measured=IC50 unit_name=nM value=1000
compound="Cc1ccncc1NC(=O)Nc1ccc(-n2cc(CCC(C)C)nn2)cc1 [Compound 15b]" parameter_measured=IC50 unit_name=nM value=2000
compound=CCCCn1nnc(-c2ccc(NC(=O)Nc3cnccc3C)cc2)n1 parameter_measured=IC50 unit_name=nM value=2490

# ---- query compound ----
Which IC50 value belongs to CCc1cn(-c2ccc(NC(=O)Nc3ccccc3C)cc2)nn1 ?
980
